Assay Method Text: Inhibition of NMDA-induced seizures after i.c.v. administration
Type: in vivo, male CF-1 mice
Run Parameters: mouse, in vivo, icv or intrathecal; ratio of rotorod TD50 to NMDA-seizure ED50; ICV administration
A collection of molecules and their measured selectivity ratio
Observed Property: selectivity ratio

[[record]]
molecule = "O=C(O)[C@H]1C[C@@H](CP(=O)(O)O)CCN1 (relative stereo) [CGS-19755, reference compound]"
recorded_value = 6.4

[[record]]
molecule = "O=C(O)C1CN(CCCP(=O)(O)O)CCN1 (racemic) [(±) CPP, reference compound]"
recorded_value = 4.5

[[record]]
molecule = "N[C@H](C[C@H]1CCCC[C@H]1CCP(=O)(O)O)C(=O)O (single isomer, unassigned) [cis isomer A]"
recorded_value = 30.5

